Biological target: PARK7 (Homo sapiens, UniProt Q99497)
Test: High-throughput screen of the crude compound library, PARK7 fluorescence polarization (FP) assay with FP reagent JYQ-107
Format: biochemical
Conditions: 1.25 µM, crude compound library; read-out: HTS FP assay %Inhibition (1.25 µM)
The entries below come with measured inhibition at 1.25 µM values attached.
Hi! Could you send only the number? It should be in %, unit omitted.

Recorded results for 8 compounds are shown here.
>>> experimentalvalue("N#CN1CC[C@@H](C(=O)Nc2nc3c(s2)CN(C(=O)Cc2ccc(S(=O)(=O)N4CCCC4)s2)CC3)C1 [compound 15]")
69.5
>>> experimentalvalue("COc1ccc(N2CCN(C(C)C(=O)N3CCc4nc(NC(=O)[C@@H]5CCN(C#N)C5)sc4C3)CC2)cc1 (stereo partly drawn) [compound 46]")
71.3
>>> experimentalvalue("N#CN1CC[C@@H](C(=O)Nc2nc3c(s2)CN(C(=O)c2cc(-c4ccc(Cl)cc4)oc2C(F)(F)F)CC3)C1 [compound 49]")
70.8
>>> experimentalvalue("N#CN1CC[C@@H](C(=O)Nc2nc3c(s2)CN(C(=O)c2ccc(-n4ncc(Cl)c(Cl)c4=O)cc2)CC3)C1 [compound 102]")
69.3
>>> experimentalvalue("Cc1ccc(S(=O)(=O)N[C@@H](Cc2ccccc2)C(=O)N2CCc3nc(NC(=O)[C@@H]4CCN(C#N)C4)sc3C2)cc1 [compound 207]")
70
>>> experimentalvalue("CN1CCN(C(=O)c2ccccc2C(=O)N2CCc3nc(NC(=O)[C@@H]4CCN(C#N)C4)sc3C2)CC1 [compound 129]")
71.3
>>> experimentalvalue("N#CN1CC[C@@H](C(=O)Nc2nc3c(s2)CN(C(=O)c2nc(N4CCCC4)ncc2Cl)CC3)C1 [compound 6]")
71.7
>>> experimentalvalue("N#CN1CC[C@@H](C(=O)Nc2nc3c(s2)CN(C(=O)CC2=NN(c4ncc(C(F)(F)F)cc4Cl)C(=O)C2)CC3)C1 [compound 109]")
68.1

Could you now look at the following compound, please?
inhibition at 1.25 µM measured on Cc1noc(C)c1S(=O)(=O)N1CCCC1C(=O)N1CCc2nc(NC(=O)[C@@H]3CCN(C#N)C3)sc2C1 (stereo partly drawn) [compound 259] = 69.8

* * *

Target: PARK7 (Homo sapiens)
Sequence (Q99497 1-189): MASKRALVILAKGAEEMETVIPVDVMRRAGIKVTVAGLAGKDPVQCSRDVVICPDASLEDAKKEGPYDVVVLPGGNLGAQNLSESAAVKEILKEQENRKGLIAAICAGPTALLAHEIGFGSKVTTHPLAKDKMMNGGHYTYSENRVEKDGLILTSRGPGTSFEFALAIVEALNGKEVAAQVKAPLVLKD
Assay: Hit validation and pure-compound testing in the PARK7 FP assay with JYQ-107
Assay type: biochemical
Conditions: crude compounds, 0.5 µM; read-out: % Inhibition 0.5 µM
The entries below come with measured inhibition at 0.5 µM values attached.
Hi! Could you send only the number? It should be in %, unit omitted.

>>> experimentalvalue("Cc1ccc(-c2cc(C(=O)N3CCc4nc(NC(=O)[C@@H]5CCN(C#N)C5)sc4C3)n[nH]2)s1")
82.2
>>> experimentalvalue("N#CN1CC[C@@H](C(=O)Nc2nc3c(s2)CN(C(=O)c2cccnc2Oc2ccccc2Br)CC3)C1")
81.5
>>> experimentalvalue("Cc1cc(C(=O)N2CCc3nc(NC(=O)[C@@H]4CCN(C#N)C4)sc3C2)ccc1Br")
79.8
>>> experimentalvalue("N#CN1CC[C@@H](C(=O)Nc2nc3c(s2)CN(C(=O)c2cc(-n4ccnc4)ccn2)CC3)C1")
81

Could you now look at the following compound, please?
inhibition at 0.5 µM measured on N#CN1CC[C@@H](C(=O)Nc2nc3c(s2)CN(C(=O)c2ccc(=O)n(C4CC4)c2)CC3)C1 = 81
